Give measured pKd for each item. Keep answers brief.
- ASSAY TARGET: T1, human Trop-2-His protein (human, UniProt P09758 27-274)
- T1 construct: extracellular domain; Assay paragraphs say only 'Trop-2-His'; also called hTrop-2; Kactus Cat #TRP-HM121; not shown: His tag
- T1 sequence (looked up): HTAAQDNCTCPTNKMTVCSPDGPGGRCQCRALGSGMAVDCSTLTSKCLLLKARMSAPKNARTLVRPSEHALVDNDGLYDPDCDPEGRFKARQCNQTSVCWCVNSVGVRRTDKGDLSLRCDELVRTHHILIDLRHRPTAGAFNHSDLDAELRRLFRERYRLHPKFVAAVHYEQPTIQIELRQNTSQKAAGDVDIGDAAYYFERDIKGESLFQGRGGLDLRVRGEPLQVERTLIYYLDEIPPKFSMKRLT
- ASSAY EXPLANATION: BLI (Gator Prime), LEM supernatant Ab on HFC probe
Entry type: numeric. Quantity: pKd, the -log10 of concentration in molar units.

Incoming: Which pKd value belongs to 62A10 (antibody, V domains shown, Rabbit-derived clone; LEM construct: VH + rabbit IgG CH1 + human IgG1 CH2-CH3) VH: QSLVESGGGLVQPEGSLTLTCKASGFDFNNYAVTWVRQAPGEGLEYIGFIGIRGHIYYANWAKGRFTISKTSSTTMTLQMTSLTVADTATYFCARGGLWTGNSYFDLWGPGTLVTVSS VL: YDMTQTPASVEVAVGGTVTINCQASESISRYLAWYQQKPGQSPKPLIYRASTLASGVPSRFQGSGSGTEYTLTISDLECADAATYYCQQGYGYSTVDNAFGGGTEVVVK ?
Outgoing: 9.02

Incoming: Which pKd value belongs to 10F12 (antibody, V domains shown, Rabbit-derived clone; LEM construct: VH + rabbit IgG CH1 + human IgG1 CH2-CH3) VH: QSLEESGGDLVQPGASLTLTCRASGFDLNNYSMLWVRQAPGKGLEWIGCIYISGGTTYFASWATGRFAISKTSSTTVTLQMTSLTAADTATYFCARDDGSTSYYLNLWGPGTLVTVSS VL: YDMTQTPASVSAAVGGTVTIKCQASEDIYSLLAWYQQKPGQPPKLLIFDASDLASGVPSRFKGSGSGTEYTLTISDLECDDAATYYCQQAYTIGNIDNAFGGGTEVVVK ?
Outgoing: 9.76

Incoming: Which pKd value belongs to 10A9 (antibody, V domains shown, Rabbit-derived clone; LEM construct: VH + rabbit IgG CH1 + human IgG1 CH2-CH3) VH: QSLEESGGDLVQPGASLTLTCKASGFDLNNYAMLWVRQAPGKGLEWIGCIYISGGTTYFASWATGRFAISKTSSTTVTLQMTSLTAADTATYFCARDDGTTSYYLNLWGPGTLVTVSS VL: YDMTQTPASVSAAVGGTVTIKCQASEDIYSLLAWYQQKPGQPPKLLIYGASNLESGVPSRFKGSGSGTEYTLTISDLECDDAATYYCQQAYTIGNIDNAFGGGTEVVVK ?
Outgoing: 9.85

Incoming: Which pKd value belongs to 2H5 (antibody, V domains shown, Rabbit-derived clone; LEM construct: VH + rabbit IgG CH1 + human IgG1 CH2-CH3) VH: QSLEESGGDLVQPGASLTLTCKASGFDLNNYSILWVRQAPGKGLEWIGCIYFSGGSTYYANWAKGRFAISKTSSTTVTLQMTSLTAADTATYFCARDDGTTSYYLNLWGPGTLVTVSS VL: YDMTQTPASVSEPVGGTVTIKCQASEDIYNLLAWYQQKPGQPPKLLIYAASDLESGVPSRFKGSGSGTEYTLTISDLECADAATYYCQQAYTVGNIDNAFGGGTEVVVK ?
Outgoing: 9.09

Incoming: Which pKd value belongs to 9A5 (antibody, V domains shown, Rabbit-derived clone; LEM construct: VH + rabbit IgG CH1 + human IgG1 CH2-CH3) VH: QEQLKESGGGLVQPGGSLTLSCKASGFDFNNYGVSWVRQAPGKGLEWIAYIYPTYHNTYYATWVNGRFTISSHNAQNTLYLQLNTLTAADTATYFCARDAGGTDYNFNLWGPGTLVTVSS VL: DVVMTQTPASVEAAVGGTVTINCQASQSIESYLAWYQQKPGQPPKLLIYEASKLASGVSSRFSGGGYGTEFTLTISGVECADAATYYCQQALTIGNVDNPFGGGSEVVVK ?
Outgoing: 9.12

Values from patent US20250206841A1
